Biological target: human TLR7 (Homo sapiens, UniProt Q9NYK1)
Construct: host or cells: HEK-Blue cells
Sequence (Q9NYK1 27-1049): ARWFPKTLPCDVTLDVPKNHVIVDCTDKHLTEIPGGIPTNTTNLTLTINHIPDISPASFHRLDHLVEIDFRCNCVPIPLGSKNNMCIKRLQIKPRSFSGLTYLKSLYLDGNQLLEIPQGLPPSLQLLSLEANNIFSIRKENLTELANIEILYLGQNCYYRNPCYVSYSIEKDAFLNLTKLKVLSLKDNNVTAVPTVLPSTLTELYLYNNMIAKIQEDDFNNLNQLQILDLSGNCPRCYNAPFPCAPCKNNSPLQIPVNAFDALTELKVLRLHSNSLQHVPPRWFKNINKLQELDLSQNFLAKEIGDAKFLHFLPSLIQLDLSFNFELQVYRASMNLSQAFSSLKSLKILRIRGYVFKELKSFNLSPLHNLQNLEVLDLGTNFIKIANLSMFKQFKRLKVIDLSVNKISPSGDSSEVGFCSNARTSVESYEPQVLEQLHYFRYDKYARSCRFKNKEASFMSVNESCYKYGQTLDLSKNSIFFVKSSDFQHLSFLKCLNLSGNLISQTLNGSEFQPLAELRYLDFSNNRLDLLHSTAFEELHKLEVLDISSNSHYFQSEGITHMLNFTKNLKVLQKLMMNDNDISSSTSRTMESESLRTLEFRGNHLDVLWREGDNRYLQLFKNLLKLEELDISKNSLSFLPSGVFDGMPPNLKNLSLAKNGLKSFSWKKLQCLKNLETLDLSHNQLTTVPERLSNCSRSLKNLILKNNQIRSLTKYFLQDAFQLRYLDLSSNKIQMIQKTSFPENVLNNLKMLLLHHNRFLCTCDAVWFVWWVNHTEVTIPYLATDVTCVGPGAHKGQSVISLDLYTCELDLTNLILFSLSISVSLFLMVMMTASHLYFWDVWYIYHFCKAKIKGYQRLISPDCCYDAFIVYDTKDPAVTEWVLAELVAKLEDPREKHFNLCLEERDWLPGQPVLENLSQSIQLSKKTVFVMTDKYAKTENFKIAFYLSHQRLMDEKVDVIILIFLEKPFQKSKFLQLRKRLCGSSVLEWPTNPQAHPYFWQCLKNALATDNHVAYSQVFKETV
Experiment: TLR7 inhibition reporter assay (HEK-Blue cells, SEAP reporter, gardiquimod stimulation)
Type: cell-based
Conditions: HEK-Blue cells overexpressing human TLR7, SEAP reporter, gardiquimod 7.5 μM; read-out: TLR7 IC50
pIC50: −log10 of the molar value.
measuredProperty: pIC50

Please review the entries below; each comes with its answer.
# molecule, reportedResult
data = [
    ("Cc1cc(-c2[nH]c3nc(C4CCNCC4)sc3c2C(C)C)cn2ncnc12", 8.74),
    ("Cc1c(-c2[nH]c3sc(C4CCC(N(C)C(C)C)CC4)nc3c2C(C)C)cn(C)c(=O)c1C (single isomer, unassigned) [Example 262]", 7.62),
    ("CNC(=O)CN1CCN(c2nc3c(C(C)C)c(-c4cn5ncnc5c(C)c4C)[nH]c3s2)[C@H](C)C1", 8.28),
    ("CCN1CCC(c2nc3c(C(C)C)c(-c4cn5ncnc5c(C)c4C)[nH]c3s2)CC1", 8.90),
    ("Cc1c(-c2[nH]c3sc(C4CCC(N5CC(F)(F)C5)CC4)nc3c2C(C)C)cn2ncnc2c1C (single isomer, unassigned) [Example 219]", 6.20),
]

[a] Cc1cc(-c2[nH]c3sc(C4CCC(NCC5(C)COC5)CC4)nc3c2C(C)C)cn2ncnc12 (single isomer, unassigned) [Example 134]
[b] Cc1c(-c2[nH]c3sc(C4CCC(N(C)C(C)C)CC4)nc3c2C(C)C)cn2ncnc2c1C (single isomer, unassigned) [Example 222]
Which numeric pIC50 is bigger, that of a or that of b ? # reply format: chosen label
b
(b: 9.12, a: 8.91)
